Parameter: EC50. Scope: all listed entries.
System: Sindbis virus
Test: microbe, parasite or virus in culture
Assay type: cell-based
Details: Vero

Recorded results for 5 compounds are shown here.
compound="CC(C)CCOC(=O)C(O)Cn1cnc2c(N)ncnc21 (racemic)" readout=EC50 reported_measurement="200 µg/mL"
compound="CCOC(=O)C(O)Cn1cnc2c(N)ncnc21 (racemic)" readout=EC50 reported_measurement="> 400 µg/mL"
compound="CC(C)OC(=O)C(O)Cn1cnc2c(N)ncnc21 (racemic)" readout=EC50 reported_measurement="> 400 µg/mL"
compound="CCC(C)OC(=O)C(O)Cn1cnc2c(N)ncnc21 (racemic)" readout=EC50 reported_measurement="300 µg/mL"
compound="Nc1ncnc2c1ncn2C[C@H](O)CO [(S)--DHPA, 9-(2,3-dihydroxypropyl)adenine, reference compound]" readout=EC50 reported_measurement="> 400 µg/mL"

-- ask Given the entry Nc1ncnc2c1ncn2CC(O)CO (racemic) [(RS)--DHPA, 9-(2,3-dihydroxypropyl)adenine, reference compound] , report its measured EC50.
-- reply > 400 µg/mL

-- ask Can you check CCCOC(=O)C(O)Cn1cnc2c(N)ncnc21 (racemic) next?
-- reply > 200 µg/mL

-- ask Next: COCCOC(=O)C(O)Cn1cnc2c(N)ncnc21 (racemic)
-- reply > 400 µg/mL
